pIC50: −log10 of the molar value.
We begin with pIC50 values for Epidermal growth factor receptor (Homo sapiens, UniProt P00533), as collected from the published literature.

compound	metric	assay.result
CN(C)C(=O)N1CCC[C@@H](Nc2n[nH]c3nccc(Oc4ccc(C(=O)Nc5ccccn5)cc4)c23)C1	pIC50	< 5.00
CCc1ccnc(NC(=O)c2ccc(-c3nn([C@@H]4CCN(C(=O)/C=C/CN(C)C5CC5)C4)c4ncnc(N)c34)cc2)c1	pIC50	5.00 to 6.00

# evaluate next
Q: What pIC50 appears in the records for this compound with Epidermal growth factor receptor (Homo sapiens, UniProt P00533)? Cc1ccc(Oc2ccc(Nc3ncnc4sc5c(c34)C(C)CN(C(=O)C=CCN3CCOCC3)C5)cc2C)cn1 (single isomer, unassigned)
Ans: < 5.00
